Target: ITGB3; note: test concentration or dose not given here
Conditions: ASO
These antisense oligonucleotides have a phosphorothioate backbone; sugars and methylation of C are not fully specified.
# if measured remaining target (mRNA or protein) (fraction of control) < 0.6: T  # else: F

Example cases with answers are listed next.
GCATCTCGTCCGCCTCCC	T
AGCTGCTGAGAGTCAGGC	T
TCAAACTTCTTACACTCC	T
AAGGTAGACGTGGCCTCT	F
ACTCACTGGGAACTCGAT	F

Prompt line: Please let me know if ACACACACATAAACACAC shows remaining target (mRNA or protein) (fraction of control) below 0.6.
Response line: F

Prompt line: Please let me know if CTTCCGTCCAATGCTATA shows remaining target (mRNA or protein) (fraction of control) below 0.6.
Response line: F
